Data origin: patent US20210395651A1

Overview of recorded lipase activity, 3 d for various molecules
# Target Entity: Lipolase® 100L (Thermomyces lanuginosus, UniProt O59952)
# Construct: purchased Sigma-Aldrich
# Sequence (O59952 23-291): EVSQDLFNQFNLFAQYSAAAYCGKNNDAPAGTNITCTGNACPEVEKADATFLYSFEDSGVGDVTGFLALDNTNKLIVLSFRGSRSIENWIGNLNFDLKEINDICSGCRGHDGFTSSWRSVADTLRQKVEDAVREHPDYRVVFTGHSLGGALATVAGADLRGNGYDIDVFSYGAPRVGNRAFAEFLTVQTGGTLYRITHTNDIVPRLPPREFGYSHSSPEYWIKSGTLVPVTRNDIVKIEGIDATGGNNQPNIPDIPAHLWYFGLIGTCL
# Measurement Notes: Lipase storage stability in liquid formulations at 37° C. (pNP-valerate activity)
# Assay type: biochemical, Thermomyces lanuginosa
# Run Parameters: base formulation I. (Lipolase 0.2 wt%, tested compound 2.5 wt%); 3 d storage at 37° C.

Molecule: CCCCOC(=O)CC(CC(=O)OCCCC)(OC(C)=O)C(=O)OCCCC [A.4, Acetyltributylcitrate]
lipase activity, 3 d (%): 104

Molecule: O=C([O-])CC(O)(CC(=O)[O-])C(=O)[O-].[Na+].[Na+].[Na+] [B.2, citric acid trisodiumsalt, reference compound]
lipase activity, 3 d (%): 90

Molecule: CCOC(=O)C(=O)OCC [B.3, diethyloxalate, reference compound]
lipase activity, 3 d (%): 90

Molecule: O=C(O)CC(O)(CC(=O)O)C(=O)O [B.1, citric acid, reference compound]
lipase activity, 3 d (%): 89

Molecule: CCOC(=O)CC(O)(CC(=O)OCC)C(=O)OCC [A.1, Triethylcitrate]
lipase activity, 3 d (%): 102

Molecule: CCOC(=O)CC(CC(=O)OCC)(OC(C)=O)C(=O)OCC [A.5, Acetyltriethylcitrate]
lipase activity, 3 d (%): 100

Molecule: CCCOC(=O)CC(O)(CC(=O)OCCC)C(=O)OCCC [A.2, Tripropylcitrate]
lipase activity, 3 d (%): 100

Molecule: CC(=O)OCC(COC(C)=O)OC(C)=O [B.4, glyceroltriacetate (triacetine), reference compound]
lipase activity, 3 d (%): 91

====

# Target Entity: Lipolase® 100L (Thermomyces lanuginosus, UniProt O59952)
# Construct: purchased Sigma-Aldrich
# Measurement Notes: Lipase storage stability in liquid formulations at 37° C. (pNP-valerate activity)
# Format: biochemical, Thermomyces lanuginosa
# Run Parameters: base formulation III. (Lipolase 0.2 wt%, tested compound 2.0 wt%); 21 d storage at 37° C.
Overview of recorded lipase activity, 21 d for various molecules

Molecule: CCOC(=O)C(=O)OCC [B.3, diethyloxalate, reference compound]
Measurement Units: %
lipase activity, 21 d: 50

Molecule: CCCOC(=O)CC(O)(CC(=O)OCCC)C(=O)OCCC [A.2, Tripropylcitrate]
Measurement Units: %
lipase activity, 21 d: 94

Molecule: O=C([O-])CC(O)(CC(=O)[O-])C(=O)[O-].[Na+].[Na+].[Na+] [B.2, citric acid trisodiumsalt, reference compound]
Measurement Units: %
lipase activity, 21 d: 53

Molecule: CCOC(=O)CC(O)(CC(=O)O)C(=O)O (stereo not shown) [A.6, Monoethylcitrate]
Measurement Units: %
lipase activity, 21 d: 82

Molecule: CCOC(=O)CC(O)(CC(=O)OCC)C(=O)OCC [A.1, Triethylcitrate]
Measurement Units: %
lipase activity, 21 d: 90

Molecule: O=C(O)CC(O)(CC(=O)O)C(=O)O [B.1, citric acid, reference compound]
Measurement Units: %
lipase activity, 21 d: 51

Molecule: CCOC(=O)CC(CC(=O)OCC)(OC(C)=O)C(=O)OCC [A.5, Acetyltriethylcitrate]
Measurement Units: %
lipase activity, 21 d: 85

====

# Target Entity: Lipolase® 100L (Thermomyces lanuginosus)
# Construct: purchased Sigma-Aldrich
# Measurement Notes: Lipase storage stability in liquid formulations at 37° C. (pNP-valerate activity)
# Assay type: biochemical, Thermomyces lanuginosa
# Run Parameters: base formulation II. (Lipolase 0.2 wt%, tested compound 2.5 wt%); 21 d storage at 37° C.

Molecule: CCOC(=O)CC(O)(CC(=O)O)C(=O)O (stereo not drawn) [A.6, Monoethylcitrate]
lipase activity, 21 d (%): 84

Molecule: O=C([O-])CC(O)(CC(=O)[O-])C(=O)[O-].[Na+].[Na+].[Na+] [B.2, citric acid trisodiumsalt, reference compound]
lipase activity, 21 d (%): 56

Molecule: O=C(CC(O)(CC(=O)OCc1ccccc1)C(=O)OCc1ccccc1)OCc1ccccc1 [A.8, Tribenzylcitrate]
lipase activity, 21 d (%): 83

Molecule: CCOC(=O)CC(CC(=O)OCC)(OC(C)=O)C(=O)OCC [A.5, Acetyltriethylcitrate]
lipase activity, 21 d (%): 90

Molecule: CCOC(=O)CC(O)(CC(=O)OCC)C(=O)OCC [A.1, Triethylcitrate]
lipase activity, 21 d (%): 88

Molecule: CC(=O)OCC(COC(C)=O)OC(C)=O [B.4, glyceroltriacetate (triacetine), reference compound]
lipase activity, 21 d (%): 56

====

# Target Entity: Lipolase® 100L (Thermomyces lanuginosus, UniProt O59952)
# Construct: purchased Sigma-Aldrich
# Sequence (O59952 23-291): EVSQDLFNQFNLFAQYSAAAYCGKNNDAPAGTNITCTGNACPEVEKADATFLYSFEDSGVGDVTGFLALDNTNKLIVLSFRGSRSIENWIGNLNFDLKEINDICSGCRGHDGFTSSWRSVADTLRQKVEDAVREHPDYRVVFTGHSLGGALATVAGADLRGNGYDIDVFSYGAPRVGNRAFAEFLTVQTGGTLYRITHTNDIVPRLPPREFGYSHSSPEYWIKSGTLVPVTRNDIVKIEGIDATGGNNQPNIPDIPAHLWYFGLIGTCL
# Measurement Notes: Lipase storage stability in liquid formulations at 37° C. (pNP-valerate activity)
# Format: biochemical, Thermomyces lanuginosa
# Run Parameters: base formulation I. (Lipolase 0.2 wt%, tested compound 2.5 wt%); 35 d storage at 37° C.
# Experimental: The storage stability of Lipase was assessed at 37° C. Base test formulations were manufactured by making base formulations I to V by mixing the components according to Table 1. […] Lipolase activity at certain points in time as indicated in Table 2 was be determined by employing pNitrophenol-valerate (2.4 mM pNP-C5 in 100 mM Tris pH 8.0, 0.01% Triton X100) as a substrate. The absorption at 405 nm was measured at 20° C. every 30 seconds over 5 minutes. […]
Overview of recorded lipase activity, 35 d for various compounds

Compound: CC(=O)OCC(COC(C)=O)OC(C)=O [B.4, glyceroltriacetate (triacetine), reference compound]
lipase activity, 35 d: 39%
//
Compound: O=C(O)CC(O)(CC(=O)O)C(=O)O [B.1, citric acid, reference compound]
lipase activity, 35 d: 29%
//
Compound: CCOC(=O)CC(O)(CC(=O)OCC)C(=O)OCC [A.1, Triethylcitrate]
lipase activity, 35 d: 80%
//
Compound: CCCCOC(=O)CC(CC(=O)OCCCC)(OC(C)=O)C(=O)OCCCC [A.4, Acetyltributylcitrate]
lipase activity, 35 d: 78%
//
Compound: CCCOC(=O)CC(O)(CC(=O)OCCC)C(=O)OCCC [A.2, Tripropylcitrate]
lipase activity, 35 d: 82%
//
Compound: CCOC(=O)C(=O)OCC [B.3, diethyloxalate, reference compound]
lipase activity, 35 d: 37%
//
Compound: O=C([O-])CC(O)(CC(=O)[O-])C(=O)[O-].[Na+].[Na+].[Na+] [B.2, citric acid trisodiumsalt, reference compound]
lipase activity, 35 d: 31%
//
Compound: CCOC(=O)CC(CC(=O)OCC)(OC(C)=O)C(=O)OCC [A.5, Acetyltriethylcitrate]
lipase activity, 35 d: 74%

====

# Target Entity: Lipolase® 100L (Thermomyces lanuginosus)
# Construct: purchased Sigma-Aldrich
# Sequence (O59952 23-291): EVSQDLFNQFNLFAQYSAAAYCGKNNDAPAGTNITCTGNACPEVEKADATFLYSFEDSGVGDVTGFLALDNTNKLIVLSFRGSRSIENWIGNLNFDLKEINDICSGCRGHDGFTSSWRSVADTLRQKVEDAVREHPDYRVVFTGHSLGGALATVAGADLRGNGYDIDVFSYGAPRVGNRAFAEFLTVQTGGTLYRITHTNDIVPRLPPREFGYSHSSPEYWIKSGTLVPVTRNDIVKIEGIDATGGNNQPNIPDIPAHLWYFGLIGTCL
# Measurement Notes: Lipase storage stability in liquid formulations at 37° C. (pNP-valerate activity)
# Format: biochemical, Thermomyces lanuginosa
# Run Parameters: base formulation V. (Lipolase 0.2 wt%, tested compound 2.0 wt%); 14 d storage at 37° C.
Observed Property: lipase activity, 14 d (%)

Compound: O=C(CC(O)(CC(=O)OCc1ccccc1)C(=O)OCc1ccccc1)OCc1ccccc1 [A.8, Tribenzylcitrate]
Measurement Units: %
Numeric Result: 88
//
Compound: CCCCOC(=O)CC(O)(CC(=O)OCCCC)C(=O)OCCCC [A.3, Tributylcitrate]
Measurement Units: %
Numeric Result: 88
//
Compound: O=C(O)CC(O)(CC(=O)O)C(=O)O [B.1, citric acid, reference compound]
Measurement Units: %
Numeric Result: 74
//
Compound: CCOC(=O)C(=O)OCC [B.3, diethyloxalate, reference compound]
Measurement Units: %
Numeric Result: 71
//
Compound: CCCCOC(=O)CC(CC(=O)OCCCC)(OC(C)=O)C(=O)OCCCC [A.4, Acetyltributylcitrate]
Measurement Units: %
Numeric Result: 90
//
Compound: CCOC(=O)CC(O)(CC(=O)OCC)C(=O)OCC [A.1, Triethylcitrate]
Measurement Units: %
Numeric Result: 89
